Collected glass transition temperature values appear next to each entry.
Entry format: amount then unit.

> print(dat)
                                   compound    result
1      *CCC[Si](*)(C)c1ccccc1 (repeat unit)  -1.50 °C
2  *OC(=O)c1ccc(/N=N/c2ccc(C(=O)OC3COC4C(*)COC34)cc2)cc1 (repeat unit)  98.00 °C

Enquiry: Item under review: *Oc1ccc(-c2ccc(OC(=O)c3cc(OCCCCCC)c(C(*)=O)cc3OCCCCCC)cc2)cc1 (repeat unit) . Reported glass transition temperature?
Return: 113.00 °C

Enquiry: // glass transition temperature lookup, key: *CC(*)CO (repeat unit)
Return: 36.00 °C

====

Examples of compounds with documented glass transition temperature follow.
// units = °C; emit number, no label

compound	attribute-measured	measure-unit	recorded-number
*CCCCCCCCOc1ccc(/C=C2\CC/C(=C\c3ccc(OCCCCCCCCOP(=O)(O*)OCC)c(OC)c3)C2=O)cc1OC (repeat unit)	glass transition temperature	°C	62.00
*CCCCCOC(=O)c1cccc(C(=O)O*)c1 (repeat unit)	glass transition temperature	°C	7.00
*CCCCN1C(=O)c2ccc(C(c3ccc4c(c3)C(=O)N(*)C4=O)(C(F)(F)F)C(F)(F)F)cc2C1=O (repeat unit)	glass transition temperature	°C	190.00
*C(F)(F)C1(*)OC(F)(F)C(F)(F)O1 (repeat unit)	glass transition temperature	°C	108.00
*C(=O)Nc1ccc(Oc2ccc(-c3ccc(Oc4ccc(NC(=O)c5ccc6c(c5)C(=O)N(c5ccc(Oc7ccc(C(C)(C)c8ccc(Oc9ccc(N%10C(=O)c%11ccc(*)cc%11C%10=O)cc9)cc8)cc7)cc5)C6=O)cc4)cc3)cc2)cc1 (repeat unit)	glass transition temperature	°C	283.00

Enquiry: // glass transition temperature lookup, key: *OC(=O)OC1CC2CC(*)CC(C1)O2 (repeat unit)
Return: 207.00

Enquiry: Query: glass transition temperature; subject: *Oc1ccc(S(=O)(=O)c2ccc(Oc3ccc(/C=N/N=C/c4ccc(*)cc4)cc3)cc2)cc1 (repeat unit)
Return: 151.00

====

Kind request: treat 200 °C as inclusive, so glass transition temperature at 200 °C or higher is MET, anything lower is NOT MET.

Example entries begin here.
> print(dat)
                                   compound  answer.label
1  *CC(*)(C)C(=O)OCCOc1ccc(C(=O)Oc2ccc(OCCCC)cc2)cc1 (repeat unit)       NOT MET
2  *CC(C)S* (repeat unit) [Poly(propylene sulfide) ]       NOT MET
3  *Oc1ccc(P(C)(=O)c2ccc(Oc3ccc(C(c4ccccc4)(c4ccc(*)cc4)C(F)(F)F)cc3)cc2)cc1 (repeat unit)           MET
4  *Oc1cccc(Oc2ccc(S(=O)(=O)c3ccc(Oc4ccc(C(=O)c5ccc(*)cc5)cc4)cc3)cc2)c1 (repeat unit)       NOT MET

Enquiry: Answer whether glass transition temperature of *Oc1cccc(NC(=O)CCCCC(=O)Nc2ccc(*)cc2)c1 (repeat unit) is greater than or equal to 200 °C.
Return: NOT MET

====

Label key: Satisfied means glass transition temperature under 200 °C; Not satisfied means glass transition temperature of 200 °C or more.

Example entries begin here.
> print(dat)
                                   compound   answer.label
1  *Nc1cc(NC(=O)c2ccc(-c3ccc(C(*)=O)cc3)cc2)cc(-c2nnc(-c3ccccn3)o2)c1 (repeat unit)      Satisfied
2  *c1ccc(Oc2ccc(N3C(=O)c4ccc(Oc5ccc(C(C)(C)c6ccc(Oc7ccc8c(c7)C(=O)N(*)C8=O)cc6)cc5)cc4C3=O)cc2)cc1 (repeat unit)  Not satisfied
3  *Oc1ccc(-c2ccc(Oc3ccc(*)cc3)c3ccccc23)c2ccccc12 (repeat unit)  Not satisfied
4  *CCCCCCCCCCCCOc1ccc(N(c2ccccc2)c2ccc(-c3ccc(N(c4ccccc4)c4ccc(O*)cc4)cc3)cc2)cc1 (repeat unit)      Satisfied
5  *c1cccc(P(=O)(c2ccc(C(F)(F)F)cc2)c2cccc(-n3c(=O)c4cc5c(=O)n(*)c(=O)c5c(-c5ccc(C(F)(F)F)cc5)c4c3=O)c2)c1 (repeat unit)  Not satisfied

Now look at this one.
Enquiry: glass transition temperature under 200 °C? Item: *Oc1ccc(Oc2ccc(/C(=N/c3ccc(/N=C(\c4ccccc4)c4ccc(*)cc4)cc3)c3ccccc3)cc2)cc1 (repeat unit)
Return: Satisfied

====

The compounds listed here are annotated with their glass transition temperature.
# number only, unit °C dropped from output

Observe how each entry below is paired with its result.
compound	attribute-measured	measure-unit	recorded-number
*c1ccc(-c2ccc(Oc3ccc(C4(C)CC(C)(C)c5ccc(Oc6ccc(-c7ccc(N8C(=O)c9ccc(Oc%10ccc%11c(c%10)C(=O)N(*)C%11=O)cc9C8=O)cc7)cc6C(F)(F)F)cc54)cc3)c(C(F)(F)F)c2)cc1 (repeat unit)	glass transition temperature	°C	249.00
*C(=O)Nc1ccc(Oc2ccccc2-c2ccccc2Oc2ccc(NC(=O)c3ccc4c(c3)C(=O)N(c3ccc(Cc5ccc(N6C(=O)c7ccc(*)cc7C6=O)cc5)cc3)C4=O)cc2)cc1 (repeat unit)	glass transition temperature	°C	240.00
*CC(*)C(=O)OCC(CC)CCCC (repeat unit) [Poly(2-ethylhexyl acrylate)]	glass transition temperature	°C	-57.08

# evaluate next
Enquiry: What measured glass transition temperature goes with *c1ccc(C(c2ccc(N3C(=O)c4ccc(Oc5cccc6c(Oc7ccc8c(c7)C(=O)N(*)C8=O)cccc56)cc4C3=O)cc2)(C(F)(F)F)C(F)(F)F)cc1 (repeat unit) ?
Return: 276.00

====

Please assign a class to every record based on measured glass transition temperature, with ranges lower (below 70 °C), middle (70 °C to below 200 °C), upper (200 °C or more)

Reference set, count: 5
compound	answer-label
*CC(COC(=O)O*)OCCOc1ccc(/C=C/c2ccc([N+](=O)[O-])cc2)cc1 (repeat unit)	lower
*C(=O)Nc1ccc(Oc2ccccc2-c2ccccc2Oc2ccc(NC(=O)c3ccc4c(c3)C(=O)N(c3ccc(C)c(N5C(=O)c6ccc(*)cc6C5=O)c3)C4=O)cc2)cc1 (repeat unit)	upper
*CC(*)C(=O)OCCCCCOC(=O)c1ccc(OC(=O)c2ccc(C#N)cc2)cc1 (repeat unit)	lower
*c1ccc(N(c2ccc(C#N)cc2)c2ccc(N3C(=O)c4ccc(Oc5ccc(C(c6ccc(Oc7ccc8c(c7)C(=O)N(*)C8=O)cc6)(C(F)(F)F)C(F)(F)F)cc5)cc4C3=O)cc2)cc1 (repeat unit)	upper
*Oc1ccc(OC(=O)CCCCCCCCC(*)=O)cc1 (repeat unit)	lower

Enquiry: Note: place this compound into its band. Item: *Oc1ccc(/N=N/c2ccc(S(=O)(=O)c3ccc(/N=N/c4ccc(OC(=O)c5ccc(/N=N/c6ccc(C(*)=O)cc6)cc5)cc4)cc3[N+](=O)[O-])c([N+](=O)[O-])c2)cc1 (repeat unit)
Return: middle

Enquiry: Hi there! Could you help me figure out the category for *CC(*)C(=O)OCCCCOC(=O)c1ccc(OC(=O)c2ccc(C#N)cc2)cc1 (repeat unit) please?
Return: lower

Enquiry: Hi there! Could you help me figure out the category for *Oc1ccc(C(C)(CC)c2ccc(OC(*)=O)c(Cl)c2)cc1Cl (repeat unit) please?
Return: middle

Enquiry: // bin(item) where item = *CC(CO)(CCl)COc1ccc(C(c2ccc(O*)cc2)(C(F)(F)F)C(F)(F)F)cc1 (repeat unit)
Return: middle

Enquiry: // return the class label for *Cc1ccc(CNC(=O)CCCCCCCCCCCCCCCCC(=O)N*)cc1 (repeat unit)
Return: middle

Enquiry: Category of *Oc1ccc(Sc2ccc(Oc3ccc(-c4ccc(-c5ccc(*)c(C(F)(F)F)c5)cc4)cc3C(F)(F)F)cc2)cc1 (repeat unit) , please.
Return: middle

Enquiry: Band assignment needed for *CC(*)OC(=O)C(F)(F)C(F)(F)C(F)(F)C(F)(F)C(F)(F)C(F)(F)C(F)(F)C(F)(F)C(F)(F)F (repeat unit) please.
Return: lower

Enquiry: Band assignment needed for *Nc1ccc(Cc2ccc(NC(=O)NCCCCCCCCNC(*)=O)cc2)cc1 (repeat unit) please.
Return: lower

Enquiry: State the band of *CC(CC(*)(C#N)C#N)c1ccc(Cl)cc1 (repeat unit)
Return: middle

====

attribute-measured: glass transition temperature (°C)
# output: bare number, implied unit °C

Enquiry: Looking for the measured glass transition temperature of *CC(*)(CC(=O)O)C(=O)O (repeat unit) , can you help?
Return: 141.00

Enquiry: Which glass transition temperature value belongs to *c1ccc(S(=O)(=O)c2ccc(N3C(=O)c4ccc(-c5ccc6c(c5)C(=O)N(*)C6=O)cc4C3=O)cc2)cc1 (repeat unit) ?
Return: 340.00

Enquiry: // glass transition temperature lookup, key: *c1cccc(Oc2cccc(Oc3cccc(N4C(=O)c5ccc(Oc6ccc7c(c6)C(=O)N(*)C7=O)cc5C4=O)c3)c2)c1 (repeat unit)
Return: 193.00

Enquiry: Endpoint output: glass transition temperature of *O[Si](*)(C)CCCCCCOc1ccc(C(=O)Oc2ccc(C(=O)OCC(C)CC)cc2)cc1 (repeat unit) . Value?
Return: -9.00

Enquiry: Dear colleague, I am looking for the recorded glass transition temperature of the following compound: *Oc1ccc(C(C)(C)c2ccc(Oc3ccc(C(=O)c4ccc(Oc5ccc(C(=O)c6ccc(*)cc6)cc5)cc4)cc3)cc2)cc1 (repeat unit)
Return: 162.00

Enquiry: Dear colleague, I am looking for the recorded glass transition temperature of the following compound: *Oc1cc(CCCC)cc(OC(=O)c2cccc(C(*)=O)c2)c1 (repeat unit)
Return: 97.50

Enquiry: What value of measured glass transition temperature is listed for *O[Si](C)(C)O[Si](C)(C)O[Si](C)(C)O[Si](C)(C)O[Si](C)(C)O[Si](C)(C)Oc1c(*)c2ccccc2c2ccccc12 (repeat unit) ?
Return: -68.00

Enquiry: If you can, please state the reported glass transition temperature value of *CCCCCC(Cl)C(*)Cl (repeat unit) .
Return: -17.00

Enquiry: Quick one: glass transition temperature for *c1ccc2c(c1)C(CCCCCC)(CCCCCC)c1cc(-c3ccc4c(c3)c3cc(*)ccc3n4-c3ccc(OC)cc3)ccc1-2 (repeat unit) ?
Return: 174.00

Enquiry: Item under review: *Nc1ccc(Cc2ccc(NC(=O)NCCCCCCCCCCNC(*)=O)cc2)cc1 (repeat unit) . Reported glass transition temperature?
Return: 46.00

Enquiry: Can you share its glass transition temperature? I mean this compound: *CC1CC(*)OCO1 (repeat unit) [Poly(vinyl formal) ]
Return: 104
